biological target: EPHB1 (UniProt P54762); test: phosphorylation enrichment, bacterial display (enrichment ratio); higher = better substrate or ligand; peptides without Tyr show the background
Sequence (P54762 whole entry, looked up): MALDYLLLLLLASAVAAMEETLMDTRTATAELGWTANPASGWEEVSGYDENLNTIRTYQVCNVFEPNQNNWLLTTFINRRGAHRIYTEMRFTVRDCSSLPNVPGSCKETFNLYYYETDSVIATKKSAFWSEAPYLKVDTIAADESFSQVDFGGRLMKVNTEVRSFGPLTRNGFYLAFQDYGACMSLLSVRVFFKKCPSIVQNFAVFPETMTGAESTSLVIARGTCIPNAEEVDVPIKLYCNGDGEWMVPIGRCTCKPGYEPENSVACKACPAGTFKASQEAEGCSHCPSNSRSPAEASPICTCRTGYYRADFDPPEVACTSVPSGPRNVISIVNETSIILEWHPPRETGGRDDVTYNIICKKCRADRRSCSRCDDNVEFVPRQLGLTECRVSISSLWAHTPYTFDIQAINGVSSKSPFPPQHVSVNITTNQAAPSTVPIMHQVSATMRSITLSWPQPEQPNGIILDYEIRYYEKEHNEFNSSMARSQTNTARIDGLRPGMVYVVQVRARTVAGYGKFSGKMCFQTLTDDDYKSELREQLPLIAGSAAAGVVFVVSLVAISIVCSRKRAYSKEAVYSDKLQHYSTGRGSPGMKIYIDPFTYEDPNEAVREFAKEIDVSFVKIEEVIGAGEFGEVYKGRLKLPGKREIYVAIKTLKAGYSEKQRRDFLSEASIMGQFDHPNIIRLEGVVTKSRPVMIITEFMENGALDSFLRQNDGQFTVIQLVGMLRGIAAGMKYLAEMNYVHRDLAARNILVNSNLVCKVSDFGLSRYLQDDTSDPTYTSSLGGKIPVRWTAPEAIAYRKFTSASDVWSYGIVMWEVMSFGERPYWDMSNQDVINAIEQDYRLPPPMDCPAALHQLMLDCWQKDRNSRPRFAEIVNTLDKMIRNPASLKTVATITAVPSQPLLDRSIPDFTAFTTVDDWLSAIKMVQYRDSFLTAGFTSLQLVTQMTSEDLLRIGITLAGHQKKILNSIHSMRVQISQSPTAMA
reported metric: phosphorylation enrichment
Would you mind answering with just the numeric figure?

LSQDVYEEDSF [RET_Y900_R897Q_YF]
1.19
KCLAVYQAGAR [APOE_Y180_R176C]
0.597
MSNSAYVKREV [SCN1A_Y1694_F1692S]
0.407
GLALRYLSDHS [VWF_Y1584]
0.518

Entry GDSVQYNRTTD [MLPH_Y454_P451S] — recorded phosphorylation enrichment = 0.486

Per the records, this sequence ( KSLFHYRQYSA [CPS1_Y1491] ) has phosphorylation enrichment equal to 0.527

The recorded phosphorylation enrichment for KIPGRYYETGS [PAX2_Y72_L69P] is 0.445

Kindly note the recorded phosphorylation enrichment for KMMGRYEMFAR [UPB1_Y362_T359M_YF] , which is 0.327

---

molecular target: c-Src SH2; assay: SH2 binding enrichment of the phosphorylated peptide, bacterial display (enrichment ratio); higher = better substrate or ligand; peptides without Tyr show the background;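 further: peptide library displayed on the E. coli surface as eCPX fusions, selected cells deep-sequenced, score is each peptide's frequency after selection divided by its frequency in the input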
reported metric: SH2 binding enrichment
// no unit string in output, number only

Solved cases below.
TYGQVYKGRHV [TNIK_Y40]
0.676
RISPEYKQNEI [GJB1_Y243_L239I]
0.412

Now examine the next entry.
Record VTPSEYLEIVR [TMEM130_Y412_E407V] . Reported SH2 binding enrichment: 0.521

---

test system: AncSZ; assay: phosphorylation enrichment, bacterial display (enrichment ratio); higher = better substrate or ligand; peptides without Tyr show the background
Reported phosphorylation enrichment values are given for each entry in this list.
Provide a numeric answer; units are not to be included.

The value of phosphorylation enrichment measured for the sequence NSRYTYKLEVK [USH2A_Y3747] turned out to be 1.12

Quick note, phosphorylation enrichment for GHEYIYVDPMQ [PDGFRA_Y574] landed at 5.16

PLTRSYIREKV [CYP2C8_Y243_A238P] has a reported phosphorylation enrichment of 0.582

Field phosphorylation enrichment (entry VIKSSYQVAKA [CPT1B_Y534_E531K] ) reads 0.588

---

test system: c-Src; assay: phosphorylation enrichment, bacterial display (enrichment ratio); higher = better substrate or ligand; peptides without Tyr show the background
reported metric: phosphorylation enrichment

Example sequences with recorded phosphorylation enrichment:
KKARAYGPGIE [FLNA_Y287]
0.392
NLNGKCNKPRA [ANGPTL3_Y417_Y417C]
0.393

Log: c-Src, sequence GYKVRYATGSI [FGFR1_Y210_W213G] , phosphorylation enrichment = 0.398

---

target: EPHB1 (UniProt P54762); test: phosphorylation enrichment, bacterial display (enrichment ratio); higher = better substrate or ligand; peptides without Tyr show the background
Entries and their phosphorylation enrichment values follow.
Lab note: record the figure alone, no unit after it.

Recorded results for 2 sequences are shown here.
TLARLYHRDST [LRIG1_Y1029_P1031R]
0.501
RAHARYCADAR [ACOT4_Y52]
0.444

Query sequence follows.
Form: sequence = GADDSYYTARS [ZAP70_Y492] ; phosphorylation enrichment = 0.488

The values you see were collected from the supplement of paper PMC10065799.
